Reported HDAC Inhibition 10 μM values are given for each entry in this list.
Test system: HDAC (Mouse Liver Extract)
Assay: Histone Deacetylase (HDAC) Inhibition Assay using Boc-Lys (Ac)-AMC Substrate
Format: biochemical
Settings: 10 μM; mouse liver enzyme; NA = No Activity; in % (unit assumed)
assay_metric: HDAC Inhibition 10 μM

• O=C(CCCCCCC(=O)N1CCN(CC(=O)Nc2nc3ccccc3s2)CC1)NO = 97.00
• CC(=O)SCCCCCC(=O)N1CCN(C(=O)CN2CCOCC2)CC1 = 34.56
• O=C(CN1CCN(C(=O)CCCCCS)CC1)Nc1nc2ccccc2s1 = 27.4
• CC(=O)N(O)C(=O)CCCCCCC(=O)N1CCN(CC(=O)Nc2nc3ccccc3s2)CC1 = 96.6
• N[C@H](CO)C(=O)NCCCCCC(=O)N1CCN(CC(=O)Nc2nc3ccccc3s2)CC1 = 1.79
• CC(=O)SCCCCC(=O)N1CCN(CC(=O)Nc2ccccc2)CC1 = 68.52
• CC(=O)SCCCCC(=O)N1CCN(CC(=O)Nc2nc3ccccc3s2)CC1 = 69.85
• Cc1ccc2nc(NC(=O)CN3CCN(C(=O)CCCCCCC(=O)NO)CC3)sc2c1 = 96.93
• CCOc1ccc2nc(NC(=O)CN3CCN(C(=O)CCCCCCC(=O)NO)CC3)sc2c1 = 98.91
• CC(=O)SCCCCC(=O)N1CCN(CC(=O)Nc2ncc([N+](=O)[O-])s2)CC1 = 23.65
• CC(=O)SCCCCC(=O)N1CCN(CC(=O)Nc2nc3ccc(C)cc3s2)CC1 = 65.63
• CC(=O)SCCCCCC(=O)N1CCN(CC(=O)Nc2nc3ccccc3s2)CC1 = 83.30
• O=C(CCCCCCC(=O)N1CCN(CC(=O)Nc2cccc(F)c2)CC1)NO = 72.99
• Cc1cccc2sc(NC(=O)CN3CCN(C(=O)CCCCCCC(=O)NOCc4ccccc4)CC3)nc12 = 4.1
• CC(=O)SCCCCCC(=O)N1CCN(CC(=O)Nc2nc3c(C)cccc3s2)CC1 = 87.16
• CC(=O)SCCCCC(=O)N1CCN(C(=O)CNc2nc3ccccc3s2)CC1 = 38.59
• CC(=O)SCCCCCC(=O)N1CCN(CC(=O)Nc2nc3ccc(C)cc3s2)CC1 = 85.59
• O=C(CN1CCN(C(=O)CCCCCNO)CC1)Nc1nc2ccccc2s1 = 4.5

---

Tested on: NCIH 460 cells
Test: Anti-cancer screen (MTT), NCIH460
Format: cell-based
assay_metric: CC50

- CCOc1ccc2nc(NC(=O)CN3CCN(C(=O)CCCCCCC(=O)NO)CC3)sc2c1 [Example 32]: > 100 µM

---

Test system: MDAMB231/U251
Experiment: Anti-cancer screen (MTT), MDAMB231/U251
Type: cell-based
Settings: MDAMB231/U251 cells, 48 hours, concentration to decrease % growth by 150%
assay_metric: LC50

- Cc1cccc2sc(NC(=O)CN3CCN(C(=O)CCCCCNO)CC3)nc12: > 100 µM
- O=C(CCCCCCC(=O)N1CCN(CC(=O)Nc2ccccc2)CC1)NO: > 100 µM
- CC(=O)SCCCCCC(=O)N1CCN(CC(=O)Nc2nc3c(C)cccc3s2)CC1: > 100 µM
- CC(=O)SCCCCC(=O)N1CCN(CC(=O)Nc2nc3ccccc3s2)CC1: > 100 µM
- Cc1ccc2nc(NC(=O)CN3CCN(C(=O)CCCCCCC(=O)NO)CC3)sc2c1: > 100 µM
- CC(=O)SCCCCC(=O)N1CCN(CC(=O)Nc2nccs2)CC1: > 100 µM
- CC(=O)SCCCCC(=O)N1CCN(CC(=O)Nc2nc(C)cs2)CC1: > 100 µM
- O=C(CCCCCCC(=O)N1CCN(CC(=O)Nc2nccs2)CC1)NO: > 100 µM
- CSCC[C@@H](N)C(=O)NCCCCCC(=O)N1CCN(CC(=O)Nc2nc3ccccc3s2)CC1: > 100 µM
- CC(=O)SCCCCC(=O)N1CCN(CC(=O)Nc2ncc([N+](=O)[O-])s2)CC1: > 100 µM
- CC(=O)SCCCCCC(=O)N1CCN(C(=O)CNc2nc3ccc(C)cc3s2)CC1: > 100 µM
- CC(=O)SCCCCC(=O)N1CCN(CC(=O)Nc2nc3c(C)cccc3s2)CC1: > 100 µM
- O=C(CN1CCN(C(=O)CCCCCS)CC1)Nc1nc2ccccc2s1: > 100 µM
- CC(=O)SCCCCC(=O)N1CCN(CC(=O)Nc2nc(C(C)(C)C)cs2)CC1: > 100 µM
- CC(=O)SCCCCCC(=O)N1CCN(CC(=O)N2CCOCC2)CC1: > 100 µM
- CC(=O)SCCCCC(=O)N1CCN(CC(=O)Nc2nc3ccc(C)cc3s2)CC1: > 100 µM
- CC(=O)ON(C(C)=O)C(=O)CCCCCCC(=O)N1CCN(CC(=O)Nc2nc3ccc(C)cc3s2)CC1: > 100 µM
- CC(=O)SCCCCCC(=O)N1CCN(CC(=O)Nc2nc3ccc(C)cc3s2)CC1: > 100 µM

---

Test system: HDAC (Mouse Liver Extract)
Test: Histone Deacetylase (HDAC) Inhibition Assay using Boc-Lys (Ac)-AMC Substrate
Format: biochemical
Details: 10 μM; mouse liver enzyme; NA = No Activity; in % (unit assumed)
Catalogue of molecules with associated HDAC Inhibition 10 μM
assay_metric: HDAC Inhibition 10 μM

- O=C(CCCCCCC(=O)N1CCN(CC(=O)Nc2ccccc2)CC1)NO: 84.96
- CC(=O)SCCCCC(=O)N1CCN(CC(=O)Nc2nc(C)cs2)CC1: 50.88
- CC(=O)SCCCCCC(=O)N1CCN(CC(=O)Nc2ccccc2)CC1: 94.50
- CC(=O)SCCCCC(=O)N1CCN(CC(=O)Nc2nc3c(C)cccc3s2)CC1: 55.56
- CC(=O)SCCCCCC(=O)N1CCN(C(=O)CNc2nc3ccc(C)cc3s2)CC1: 86.74
- COc1cccc2sc(NC(=O)CN3CCN(C(=O)CCCCCSC(C)=O)CC3)nc12: 96.2
- CC(=O)SCCCCCC(=O)N1CCN(CC(=O)Nc2nc(C)cs2)CC1: 96.19

---

# HDAC Inhibition 1 μM per entry
System: HDAC (Mouse Liver Extract)
Assay: Histone Deacetylase (HDAC) Inhibition Assay using Boc-Lys (Ac)-AMC Substrate
Assay type: biochemical
Settings: 1 μM; mouse liver enzyme; NA = No Activity; in % (unit assumed)
assay_metric: HDAC Inhibition 1 μM

• CC(=O)SCCCCC(=O)N1CCN(CC(=O)Nc2ncc([N+](=O)[O-])s2)CC1 = 3.39
• CC(=O)SCCCCCC(=O)N1CCN(CC(=O)Nc2nc3ccccc3s2)CC1 = 63.40
• COc1cccc2sc(NC(=O)CN3CCN(C(=O)CCCCCSC(C)=O)CC3)nc12 = 82.9
• CC(=O)SCCCCCC(=O)N1CCN(CC(=O)Nc2nc3ccc(C)cc3s2)CC1 = 57.31

---

Molecular target: HDAC (Mouse Liver Extract)
Assay: Histone Deacetylase (HDAC) Inhibition Assay using Boc-Lys (Ac)-AMC Substrate
Conditions: mouse liver enzyme; NA = No Activity
Could you please mark T for values of IC50 below 2000 nM and F for values at or above it?

• O=C(CCCCCCC(=O)N1CCN(CC(=O)Nc2cccc(F)c2)CC1)NO [Example 36] = T
• CC(=O)SCCCCCC(=O)N1CCN(CC(=O)Nc2nc3ccccc3s2)CC1 [Example 6] = T
• O=C(CCCCCCC(=O)N1CCN(CC(=O)Nc2nc3ccccc3s2)CC1)NO [Example 29] = T
• COc1cccc2sc(NC(=O)CN3CCN(C(=O)CCCCCSC(C)=O)CC3)nc12 [Example 21] = T
• CC(=O)SCCCCCC(=O)N1CCN(CC(=O)Nc2nc3c(C)cccc3s2)CC1 [Example 10] = T
• CC(=O)N(O)C(=O)CCCCCCC(=O)N1CCN(CC(=O)Nc2nc3ccccc3s2)CC1 [Example 39] = T
• CC(=O)SCCCCC(=O)N1CCN(CC(=O)Nc2cccc(F)c2)CC1 [Example 23] = F
• CC(=O)SCCCCC(=O)N1CCN(CC(=O)Nc2nc3ccc(C)cc3s2)CC1 [Example 11] = F

---

System: HDAC (Mouse Liver Extract)
Test: Histone Deacetylase (HDAC) Inhibition Assay using Boc-Lys (Ac)-AMC Substrate
Type: biochemical
Settings: 1 μM; mouse liver enzyme; NA = No Activity; in % (unit assumed)
Quick reference: HDAC Inhibition 1 μM of the listed items.
assay_metric: HDAC Inhibition 1 μM

• O=C(CN1CCN(C(=O)CCCCCS)CC1)Nc1nc2ccccc2s1 = 4
• CC(=O)SCCCCCC(=O)N1CCN(CC(=O)Nc2nc(C)cs2)CC1 = 68.04
• CCOc1ccc2nc(NC(=O)CN3CCN(C(=O)CCCCCCC(=O)NO)CC3)sc2c1 = 60.30
• CC(=O)SCCCCCC(=O)N1CCN(CC(=O)Nc2nc3c(C)cccc3s2)CC1 = 54.06
• CC(=O)SCCCCC(=O)N1CCN(CC(=O)Nc2nc(C(C)(C)C)cs2)CC1 = 23.11
• COc1cc(CNC(=O)CN2CCN(C(=O)CCCCSC(C)=O)CC2)cc(OC)c1 = 26.4
• CC(=O)SCCCCCC(=O)N1CCN(CC(=O)Nc2ccccc2)CC1 = 65.15
• CC(=O)SCCCCC(=O)N1CCN(C(=O)CNc2nc3ccccc3s2)CC1 = 10.48
• N[C@H](CO)C(=O)NCCCCCC(=O)N1CCN(CC(=O)Nc2nc3ccccc3s2)CC1 = 5.45
